biological target: murine A^k MHC class II allele (Mus musculus, UniProt P01910+P06343); construct: The A20 and CH27 B cell lymphoma lines express H-2^d and H-2^k alleles, respectively; endogenous in cells; host or cells: CH27 B cell lymphoma (mitomycin C-treated); assay: simultaneous assay, A^k allele (CH27 APC, 3A9 T hybridoma, HEL46-61); type: cell-based; settings: Table 2; AE peptide 64 μM; 0.05 μM HEL46-61; supernatant 1:2
Sequence (P01910 24-256): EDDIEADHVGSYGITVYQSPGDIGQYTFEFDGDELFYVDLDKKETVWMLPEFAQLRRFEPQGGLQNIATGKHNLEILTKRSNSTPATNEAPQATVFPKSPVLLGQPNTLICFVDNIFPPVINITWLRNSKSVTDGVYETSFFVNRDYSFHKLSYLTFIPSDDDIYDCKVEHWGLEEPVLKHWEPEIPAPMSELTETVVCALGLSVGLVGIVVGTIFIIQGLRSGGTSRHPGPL
Sequence (P06343 28-263): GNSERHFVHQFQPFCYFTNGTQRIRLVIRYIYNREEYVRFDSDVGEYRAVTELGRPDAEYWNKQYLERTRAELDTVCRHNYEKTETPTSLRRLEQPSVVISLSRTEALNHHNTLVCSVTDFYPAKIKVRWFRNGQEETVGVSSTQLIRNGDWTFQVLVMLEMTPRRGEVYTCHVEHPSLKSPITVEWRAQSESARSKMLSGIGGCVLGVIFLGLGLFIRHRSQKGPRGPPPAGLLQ
The following substances are listed with their measured Times Baseline Response, A^k values.
Property: Times Baseline Response, A^k

1) Ac-NLQLDSLRMKLPKSAK-NH2 [AE150] ... 0.0
2) Ac-SLRMKLPKSAK-NH2 [AE155] ... 1.0
3) Ac-QLDSLRMKLPKSAK-NH2 [AE152] ... 0.5
4) Ac-LRMKLPKSAK-NH2 [AE110] ... 0.8
5) Ac-LDSLRMKLPKSAK-NH2 [AE153] ... 1.0
6) Ac-DSLRMKLPKSAK-NH2 [AE154] ... 1.0
7) Ac-LQLDSLRMKLPKSAK-NH2 [AE151] ... 0.5
8) Ac-YRMKLPKSAK-NH2 [AE109] ... 1.2

###

molecular target: murine E^d MHC class II allele (Mus musculus, UniProt P01904+P01915); experiment: simultaneous assay, E^d allele (A20 APC, G28.C9 T hybridoma, HEL106-116; HT-2 [3H]TdR readout); assay type: cell-based; parameters: The A20 and CH27 B cell lymphoma lines express H-2^d and H-2^k alleles, respectively; endogenous in cells; host or cells: A20 B cell lymphoma (mitomycin C-treated or paraformaldehyde-fixed); conditions: Table 4; AE109 homolog 64 μM; supernatant 1:2
Non-standard residues stand in square brackets, D forms with d. hArg = N=C(N)NCCCC[C@H](N)C(=O)O; Cit = NC(=O)NCCC[C@H](N)C(=O)O; Orn = NCCC[C@H](N)C(=O)O
Entries whose Times Baseline Response, E^d is below 1 take Criterion met; entries at or above 1 take Criterion not met.

1. Ac-Y Y MKLPKSAK-NH2 [AE140] ... Criterion met
2. Ac-YAMKLPKSAK-NH2 [AE121] ... Criterion not met
3. Ac-Y M MKLPKSAK-NH2 [AE141] ... Criterion not met
4. Ac-Y K MKLPKSAK-NH2 [AE134] ... Criterion met
5. Ac-Y[Orn]MKLPKSAK-NH2 [AE130] ... Criterion met
6. Ac-Y H MKLPKSAK-NH2 [AE133] ... Criterion met
7. Ac-Y[Cit]MKLPKSAK-NH2 [AE131] ... Criterion not met
8. Ac-Y[hArg]MKLPKSAK-NH2 [AE132] ... Criterion not met

###

Molecular target: murine E^d MHC class II allele (Mus musculus, UniProt P01904+P01915)
Sequence (P01904 26-255): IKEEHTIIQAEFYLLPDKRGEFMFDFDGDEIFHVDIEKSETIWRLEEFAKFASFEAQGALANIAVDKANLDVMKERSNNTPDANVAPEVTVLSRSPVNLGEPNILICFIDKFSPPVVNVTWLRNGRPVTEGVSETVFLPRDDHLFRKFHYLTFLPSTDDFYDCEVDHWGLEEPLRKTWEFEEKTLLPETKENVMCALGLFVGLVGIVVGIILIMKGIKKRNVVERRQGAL
Sequence (P01915 27-264 limits assumed): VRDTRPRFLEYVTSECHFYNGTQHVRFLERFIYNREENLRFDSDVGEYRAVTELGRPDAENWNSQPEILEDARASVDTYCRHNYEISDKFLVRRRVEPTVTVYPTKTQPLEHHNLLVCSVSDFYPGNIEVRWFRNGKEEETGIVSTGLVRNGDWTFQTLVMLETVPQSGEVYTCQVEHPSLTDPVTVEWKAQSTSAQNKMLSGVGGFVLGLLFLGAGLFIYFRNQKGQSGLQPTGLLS
Experiment: simultaneous assay, E^d allele (A20 APC, G28.C9 T hybridoma, HEL106-116; HT-2 [3H]TdR readout)
Type: cell-based
Design: The A20 and CH27 B cell lymphoma lines express H-2^d and H-2^k alleles, respectively; endogenous in cells; host or cells: A20 B cell lymphoma (mitomycin C-treated or paraformaldehyde-fixed)
Settings: Table 1; AE peptide 64 μM (first value); 0.4 μM HEL106-116; supernatant 1:4
Kindly apply the following: yes if Times Baseline Response, E^d is less than 40, no in every other case.

1. Ac-YRMKLPKS-NH2 [AE112] ... no
2. YRMKLPKSAKPVSQMR [AE101] ... yes
3. Ac-YRMKLP-NH2 [AE115] ... yes
4. KLPKSAKPVSQMR [AE103] ... yes
5. Ac-LRMKLPKSAK-NH2 [AE110] ... no
6. YRMKLPKSAK [AE108] ... yes
7. Ac-YRMKLPK-NH2 [AE113] ... yes
8. YRMKLPKSAKPV [AE107] ... yes
9. SAKPVSQMR [AE105] ... yes
10. YRMKLPKSAKPVSQ [AE106] ... yes
11. PKSAKPVSQMR [AE104] ... yes
12. RMKLPKSAKPVSQMR [AE102] ... yes
